assay: Acute oral toxicity in SD rats; format: in vivo; details: rat, in vivo, po, rats, female
Measured Attribute: LD50 at 336 h

// known answers, use as guide
// LD50 at 336 h lookup, compound = CCc1c2[n+](cc3c(OCc4ccc(C(C)(C)C)cc4)c(OC)ccc13)CCc1cc(OC)c(OC)cc1-2 [Compound No. 2] , result: > 2000 mg/kg

// LD50 at 336 h lookup, compound = CCCOc1cc2c(cc1OCCC)-c1c(CC)c3ccc(OCCC)c(OCc4ccc(C(F)(F)F)cc4)c3c[n+]1CC2 [Compound No. 68] , result: > 3000 mg/kg

// LD50 at 336 h lookup, compound = CCc1c2[n+](cc3c(OCc4c(F)c(F)c(F)c(F)c4F)c(OC)ccc13)CCc1cc(OC)c(OC)cc1-2 [Compound No. 3] , result: > 2000 mg/kg

Continuing:
// LD50 at 336 h lookup, compound = CCc1c2[n+](cc3c(OCc4ccc(C(F)(F)F)cc4)c(OC)ccc13)CCc1cc(OC)c(OC)cc1-2 [Compound No. 9] , result: > 2000 mg/kg

---

Tested on: Syrian Golden Hamster
Assay: In vivo effect on plasma lipids in Syrian Golden Hamster
Conditions: 0.3 mg/kg/day oral, 14 days
Protocol: In order to investigate the effect of the compound of formula (I) of the invention, the compound was orally administered into male Syrian Golden Hamsters having weights of 90~110 g for two weeks and blood was then taken from each animal. Plasma lipids, i.e., total cholesterol, LDL-cholesterol,HDL-cholesterol and triglycerides were analyzed using an automatic analyzer (Automatic analyzer model Hitachi 7150). […]
Measured Attribute: Total cholesterol, change versus normal diet control (%)
Kindly answer with a numeric value in %, unit omitted.

// Total cholesterol, change versus normal diet control lookup, compound = `CCc1c2[n+](cc3c(OCc4ccc(C(C)(C)C)cc4)c(OC)ccc13)CCc1cc(OC)c(OC)cc1-2` , result: -11.5

Continuing:
// Total cholesterol, change versus normal diet control lookup, compound = `CCc1c2[n+](cc3c(OCc4c(F)c(F)c(F)c(F)c4F)c(OC)ccc13)CCc1cc(OC)c(OC)cc1-2` , result: -23.5

// Total cholesterol, change versus normal diet control lookup, compound = `CCc1c2[n+](cc3c(OCc4ccc(C(F)(F)F)cc4)c(OC)ccc13)CCc1cc(OC)c(OC)cc1-2` , result: -37.0

// Total cholesterol, change versus normal diet control lookup, compound = `CCCOc1cc2c(cc1OCCC)-c1c(CC)c3ccc(OCCC)c(OCc4ccc(C(F)(F)F)cc4)c3c[n+]1CC2` , result: -33.1

---

Molecular target: sterol 14-reductase (Rattus norvegicus, UniProt A0ACM8Q6X4)
Construct: microsome which was used as an enzyme source of sterol 14-reductase; from tissue; host or cells: liver microsomes of male Sprague-Dawley rats fed lovastatin and cholestyramine
Sequence (A0ACM8Q6X4 1-418): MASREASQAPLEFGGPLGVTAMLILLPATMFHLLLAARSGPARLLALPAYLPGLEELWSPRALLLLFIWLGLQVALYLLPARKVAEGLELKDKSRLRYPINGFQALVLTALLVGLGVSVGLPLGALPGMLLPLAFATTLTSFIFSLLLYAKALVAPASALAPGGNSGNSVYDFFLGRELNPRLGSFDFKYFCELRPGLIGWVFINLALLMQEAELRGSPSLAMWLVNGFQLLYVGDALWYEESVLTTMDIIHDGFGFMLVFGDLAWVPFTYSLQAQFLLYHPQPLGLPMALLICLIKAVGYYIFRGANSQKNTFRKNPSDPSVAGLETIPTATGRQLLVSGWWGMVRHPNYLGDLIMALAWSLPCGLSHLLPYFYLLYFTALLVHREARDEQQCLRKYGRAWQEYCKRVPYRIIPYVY
Assay: Inhibition of sterol 14-reductase in rat liver microsomes
Format: biochemical
Settings: read-out: Enzyme Activity (relative in vitro activity for sterol 14-reductase, IC50 class)
IC50 values, listed per item

// known answers, use as guide
// IC50 lookup, compound = `CCc1c2[n+](cc3c(OCc4ccc(C(C)C)cc4)c(OC)ccc13)CCc1cc(OC)c(OC)cc1-2` , result: > 100 µM

// IC50 lookup, compound = `CCc1c2[n+](cc3c(OCc4ccc(Br)cc4)c(OC)ccc13)CCc1cc(OC)c(OC)cc1-2` , result: 10 to 100 µM

// IC50 lookup, compound = `CCc1c2[n+](cc3c(OCc4cc(OC)c(OC)cc4[N+](=O)[O-])c(OC)ccc13)CCc1cc(OC)c(OC)cc1-2` , result: < 1 µM

Continuing:
// IC50 lookup, compound = `CCCOc1cc2c(cc1OCCC)-c1c(CC)c3ccc(OCCC)c(OCc4ccc(C(C)(C)C)cc4)c3c[n+]1CC2` , result: 10 to 100 µM
